Where do these numbers come from? They come from paper PMC10330721.

method notes: Haemolytic activity assay
Format: cell-based
reported conditions: human red blood cells (RBCs) from healthy donors, 100 µM, 37°C, read-out: Percentage of haemolysis
measure name: hemolysis at 1 h, 100 µM (%)
Please give a number only; it is taken to be in %.

CC(O)C(O)c1ccccc1 (stereo not drawn) [2b, 1-phenylpropane-1,2-diol]
1.71
CC=Cc1ccc(OC)c(OC)c1 [4a, 1,2-dimethoxy-4-prop-1-en-1-yl benzene]
1.79
COc1ccc(C(O)C(C)O)cc1OC (stereo not drawn) [4b, 1-(3,4-dimethoxyphenyl)propane-1,2-diol]
2.06
COc1ccc(C(O)C(C)O)cc1 (stereo not drawn) [3b, 1-(4-methoxyphenyl)propane-1,2-diol]
2.6

Entry C/C=C/c1ccc(OC)cc1 [3a, anethole] — recorded hemolysis at 1 h, 100 µM = 2.5

Entry COc1cc(C(O)C(C)O)ccc1O (stereo not drawn) [5b] — recorded hemolysis at 1 h, 100 µM = 1.98

Entry C/C=C/c1ccc2c(c1)OCO2 [1a, isosafrole] — recorded hemolysis at 1 h, 100 µM = 2.55

Entry CC(O)C(=O)c1ccccc1 (stereo not drawn) [2c, 2-hydroxy-1-phenylpropan-1-one] — recorded hemolysis at 1 h, 100 µM = 2.46

Entry COc1ccc(C(=O)C(C)O)cc1 (stereo not drawn) [3c] — recorded hemolysis at 1 h, 100 µM = 1.53

Entry CC(O)C(=O)c1ccc2c(c1)OCO2 (stereo not drawn) [1c] — recorded hemolysis at 1 h, 100 µM = 1.51

Entry CC(O)C(O)c1ccc2c(c1)OCO2 (stereo not drawn) [1b, 1-(1,3-benzodioxol-5-yl)propane-1,2-diol] — recorded hemolysis at 1 h, 100 µM = 2.58

Entry COc1ccc(C(=O)C(C)O)cc1OC (stereo not drawn) [4c] — recorded hemolysis at 1 h, 100 µM = 2.44

---

method notes: Haemolytic activity assay
Assay type: cell-based
reported conditions: human red blood cells (RBCs) from healthy donors, 10 µM, 37°C, read-out: Percentage of haemolysis
Procedure: This test is based on comparison of the cytotoxicity of all tested compounds in human red blood cells (RBCs) with that in a control group. RBCs for this method were obtained from a blood center from examined and healthy donors. The compounds were tested at 10, 20, 40, 60, 80, and 100 μM concentrations. […] Then, the absorbance at 540 nm was measured using a UV–Vis spectrophotometer (Specord 40, Analytik Jena, Jena, Germany). […]
measure name: hemolysis at 1 h, 10 µM (%)
Please give a number only; it is taken to be in %.

COc1ccc(C(O)C(C)O)cc1 (stereo not shown) [3b, 1-(4-methoxyphenyl)propane-1,2-diol]
2.45

Entry CC(O)C(=O)c1ccc2c(c1)OCO2 (stereo not shown) [1c] — recorded hemolysis at 1 h, 10 µM = 1.46

Entry COc1ccc(C(=O)C(C)O)cc1 (stereo not shown) [3c] — recorded hemolysis at 1 h, 10 µM = 1.83

Entry CC(O)C(O)c1ccccc1 (stereo not shown) [2b, 1-phenylpropane-1,2-diol] — recorded hemolysis at 1 h, 10 µM = 1.04

Entry COc1cc(C(O)C(C)O)ccc1O (stereo not shown) [5b] — recorded hemolysis at 1 h, 10 µM = 1.27

Entry CC(O)C(=O)c1ccccc1 (stereo not shown) [2c, 2-hydroxy-1-phenylpropan-1-one] — recorded hemolysis at 1 h, 10 µM = 1.16

Entry CC(O)C(O)c1ccc2c(c1)OCO2 (stereo not shown) [1b, 1-(1,3-benzodioxol-5-yl)propane-1,2-diol] — recorded hemolysis at 1 h, 10 µM = 2.28
